- TEST_DESCRIPTION: Primary imaging screen for DUSP6 inhibitors that restore phospho-Erk in transfected HeLa cells, chemical complementation (AID 609)
- TEST_CONDITIONS: HeLa MKP-3 transfected, phospho-Erk imaging KS statistic; measured here: nuclear c-Myc green intensity z-score; at 10 µM; cells stimulated with TPA for 15 min
Entries and their z-score
Please state the value as a number alone, without comment.

Item Cc1cn([C@H]2C=C[C@@H](CO)O2)c(=O)[nH]c1=O has what recorded z-score?
1.21

Item CCc1oc2ccccc2c1C(=O)c1cc(Br)c(O)c(Br)c1 has what recorded z-score?
0.368

Item COc1cccc(C(=O)NCC(=O)n2nc(C)cc2C)c1 has what recorded z-score?
0.517

Item Cc1cccc(OCC(=O)NCC(=O)n2nc(C)cc2C)c1 has what recorded z-score?
0.0922

Item O=c1c(O)c(-c2ccc(O)cc2O)oc2cc(O)cc(O)c12 has what recorded z-score?
0.679

Item Cc1ccc(N2CN=c3s/c(=C\c4cccnc4)c(=O)n3C2)cc1 has what recorded z-score?
0.442

Item CC(C)(C)NC[C@H](O)COc1nsnc1N1CCOCC1 has what recorded z-score?
-0.39

Item CCCCc1oc2ccccc2c1C(=O)c1cc(I)c(OCCN(CC)CC)c(I)c1 has what recorded z-score?
-0.674

Item Oc1oc(-c2ccccc2)nc1C=NCc1ccncc1 has what recorded z-score?
-0.425

Item CN(C)CCCN1c2ccccc2Sc2ccc(C(F)(F)F)cc21 has what recorded z-score?
0.801

Item O=C(NCC1CCCCN1)c1cc(OCC(F)(F)F)ccc1OCC(F)(F)F (stereo unspecified) has what recorded z-score?
0.032

###

- TARGET_DESC: Voltage-gated potassium channel subunit beta-2 (Rattus norvegicus) (UniProt P62483)
- Sequence (P62483 whole entry, looked up): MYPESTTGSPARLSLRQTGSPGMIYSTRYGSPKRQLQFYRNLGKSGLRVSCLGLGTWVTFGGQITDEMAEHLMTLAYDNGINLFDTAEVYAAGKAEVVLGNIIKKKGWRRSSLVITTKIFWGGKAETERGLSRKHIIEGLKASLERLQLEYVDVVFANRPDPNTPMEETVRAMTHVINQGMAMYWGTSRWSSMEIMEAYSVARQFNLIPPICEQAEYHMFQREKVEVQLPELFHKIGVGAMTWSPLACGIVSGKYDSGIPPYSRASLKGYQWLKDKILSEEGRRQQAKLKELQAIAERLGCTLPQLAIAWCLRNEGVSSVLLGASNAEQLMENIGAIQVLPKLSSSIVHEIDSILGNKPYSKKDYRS
- TEST_DESCRIPTION: inhibitors of rat Kvbeta2 reductase activity – biochemical, NADPH fluorescence, primary screen (AID 622);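 note: slope of raw intensity against log time taken from 70 to 1610 s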
- TEST_CONDITIONS: recombinant KvBeta, 4-cyanobenzaldehyde reduction, at 10 µM, stronger effect = higher value
Outcome label depends on fluorescence slope relative to -0.5: at/above gives label 1, below gives label 0.

Sample answers from the record:
CNC(=O)CN(c1cc(C)ccc1OC)S(=O)(=O)c1ccc(C)cc1	label 0
CSc1ccccc1C(=O)NC1CC2CCC1C2 (stereo not drawn)	label 0
O=C(CN1C(=O)C2CC=C(Cl)CC2C1=O)Nc1ccc(C(=O)O)cc1 (stereo not drawn)	label 0
CCn1c(SCC(=O)N2CCCc3ccccc32)nnc1-c1cccs1	label 0
Cn1cnnc1SCC(=O)NCc1cccc(C(F)(F)F)c1	label 0

Please tell me: is the compound Cc1ccccc1NC(=O)C1CCN(c2cnccn2)CC1 at or over -0.5 in terms of fluorescence slope?
label 0

Please tell me: is the compound CCC(NS(=O)(=O)c1ccc(C)cc1)C(=O)N1CCC2(O)CCCCC2C1 (stereo not drawn) at or over -0.5 in terms of fluorescence slope?
label 1

###

- TARGET_DESC: Muscarinic acetylcholine receptor M4 (Homo sapiens)
- TEST_DESCRIPTION: M4-linked GIRK flux change, two-sided – cell-based, HEK293 M4/GIRK, thallium flux, BTC-AM, M4 allosteric agonist project, primary screen (AID 625);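 note: thallium influx through GIRK channels coupled to M4 in HEK293 cells with BTC-AM dye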
- TEST_CONDITIONS: at 10 µM, actives lie on both sides
Range-based classes on measured fluorescence slope: LOW = under 0.005, MEDIUM = from 0.005 up to 0.006, HIGH = 0.006 and over

Sample answers from the record:
COc1ccc(C2C(C(=O)c3sc(C)nc3C)=C(O)C(=O)N2CCN2CCOCC2)cc1 (centres undefined)	HIGH
Cc1ccc2c(COn3nnc4ccc(S(=O)(=O)N(C)C)cc43)cc(=O)oc2c1C	HIGH
Cc1ccc(-c2nn3c(=O)c(C)nnc3s2)cc1	MEDIUM
CN1CC(=O)Nc2ccc(F)cc2C1=O	MEDIUM
CCOC(=O)C(CC)(CCC(=O)O)c1csc(N)n1 (centres undefined)	MEDIUM

Place this compound in its band: Nn1c(CSc2nc3ccccc3o2)nnc1CSc1nc2ccccc2o1
MEDIUM

Place this compound in its band: CC1Cc2cc(/C(O)=C3/C(=O)C(=O)N(CCN4CCOCC4)C3c3cccc(O)c3)ccc2O1 (centres undefined)
MEDIUM

###

Entries and their nuclei count
- TEST_DESCRIPTION: endothelial E-selectin expression blockers – imaging, HUVEC, immunofluorescence, MLSMR starter and 10KST1 sets, primary screen (AID 487);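 for nuclei count: 100% = median nuclei count of all wells on the same plate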
- TEST_CONDITIONS: HUVEC TNFalpha-induced E-selectin immunofluorescence imaging, at 2 µM; measured here: cell number, toxicity
Return type: number; implicit unit %.

Example results:
CCCCCc1c(O)c2ccccc2[nH]c1=O	87
Cc1nc2cccc(C(=O)NC3CCCCC3)c2o1	102
NC(=O)c1nsnc1-c1ccccc1O	100
CCOC(=O)c1cc2sccc2n1CC(=O)Nc1ccc(OC)cc1OC	107

Item Cc1cc(O)c(NC(=O)c2ccc(Br)o2)cc1C has what recorded nuclei count?
116

Item Cc1cc(C)n(-c2nc(C)nc3c2cnn3-c2ccccc2)n1 has what recorded nuclei count?
114

Item Cc1occc1C(=O)Nc1cccc2ccccc12 has what recorded nuclei count?
100

Item CC(C)(C)N=C1NC(=NC(C)(C)C)c2ccccc21 has what recorded nuclei count?
107

Item FC(F)(F)COc1nc(N2CCCCC2)nc(N2CCNCC2)n1 has what recorded nuclei count?
109

Item CCOC(=O)CNC(=O)CSc1ncnc2c1cnn2-c1ccccc1 has what recorded nuclei count?
118

Item O=S(=O)(NCCc1csc(-c2ccccc2)n1)c1ccc2c(c1)OCCO2 has what recorded nuclei count?
76.2

Item COc1ccccc1OC(=O)c1ccc(SC)cc1OC has what recorded nuclei count?
116

Item Cc1cccn2cc(-c3ccccc3)nc12 has what recorded nuclei count?
89.3

Item COc1ccc(-c2nnc3ccc(SC(C(C)=O)C(C)=O)nn23)cc1OC has what recorded nuclei count?
94

Item O=c1c2ccccc2nnn1CSc1nc2cc(Cl)ccc2c(=O)n1Cc1ccco1 has what recorded nuclei count?
113

Item O=C(c1nc2n(n1)C(c1ccc(Cl)cc1)C=C(c1ccccc1)N2)N1CCOCC1 (configuration not stated) has what recorded nuclei count?
110

Item Cc1cccc(Nc2ccccc2C(=O)O)c1C has what recorded nuclei count?
118

Item C=CCOc1nc(N2CCCC2)nc(N2CCCC2)n1 has what recorded nuclei count?
84.1

Item CC1C(O)=C(c2nc3ccccc3[nH]2)C(=N)N1c1ccccc1 (configuration not stated) has what recorded nuclei count?
104

Item CC1CCc2nc(NC(=O)CN3CCN(Cc4ccc5c(c4)OCO5)CC3)sc2C1 (configuration not stated) has what recorded nuclei count?
97.3

Item CCCC(C)C(=O)Nc1ccc(C(N)=O)cc1 (configuration not stated) has what recorded nuclei count?
87

Item CCc1cccc2c3c([nH]c12)C(CC)(CC(=O)O)OCC3 (configuration not stated) has what recorded nuclei count?
126

Item CN(C)S(=O)(=O)c1ccc(S(=O)(=O)Nc2ccc3c(c2)oc2ccccc23)cc1 has what recorded nuclei count?
92

Item Nc1nonc1-c1noc(CCCCCN2C(=O)c3ccccc3C2=O)n1 has what recorded nuclei count?
88

Item COc1ccc(Cn2ccnc2)cc1Br has what recorded nuclei count?
141

Item O=c1c2ccccc2c(C=Nc2ccc(Cl)cn2)c(O)n1-c1cc(Cl)ccc1N1CCOCC1 has what recorded nuclei count?
90.3

Item CCN(C(=O)CN1CCN(c2ccccc2OC)CC1)c1c(N)n(Cc2ccccc2)c(=O)[nH]c1=O has what recorded nuclei count?
102

Item O=C(NCc1ccco1)C1CCN(C(=O)c2cc3sccc3n2Cc2ccc(F)cc2)CC1 has what recorded nuclei count?
101

###

- TARGET_DESC: Voltage-gated potassium channel subunit beta-2 (Rattus norvegicus) (UniProt P62483)
- TEST_DESCRIPTION: enhancers of rat Kvbeta2 NADPH turnover – biochemical, NADPH fluorescence, primary screen (AID 623);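 note: fluorescence intensity change per second fitted from 20 to 320 s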
- TEST_CONDITIONS: Recombinant KvBeta, NADPH fluorescence decrease slope, 10 min; at 10 µM; stronger effect = lower value
Entries and their NADPH fluorescence slope
Please state the value as a number alone, without comment.

Example results:
CC(NC(=O)c1ccco1)C(c1cccs1)N1CCN(c2ccc(F)cc2)CC1 (stereo not given)	0.000157
CCn1c(SCC(=O)c2ccc3c(c2)OCCO3)nnc1-c1ccco1	-2.2e-05
CCCCCCn1c(SCCCC)nc2c1c(=O)[nH]c(=O)n2C	-3.9e-05
C=CCN1C(=O)/C(=C2\SC(N3CCOCC3)=NC2=O)c2cc(Br)ccc21	-8.4e-05

Item COc1cc(C(=O)Nc2ccc3c(c2)C(=O)N(CCC(=O)O)C3=O)cc(OC)c1OC has what recorded NADPH fluorescence slope?
-4.2e-05

###

- TEST_DESCRIPTION: endothelial E-selectin expression blockers – imaging, HUVEC, immunofluorescence, MLSMR starter and 10KST1 sets, primary screen (AID 487);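 for inhibition: signal is fraction of cell area covered by stained E-selectin grains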
- TEST_CONDITIONS: HUVEC TNFalpha-induced E-selectin immunofluorescence imaging, at 2 µM; stronger effect = higher value
QUANTITY_MEASURED: inhibition (%)
Return type: number; implicit unit %.

CCCCNC(=O)c1cc(-c2ccc(F)cc2)on1	-39.2
CCCCNC(=O)Nc1ccnn1C1CCCCC1	-34.1
CC(C(=O)NC1CCCCCC1)N(c1ccccc1)S(C)(=O)=O (configuration not stated)	-7.4
CC(C(=O)N1CCCCC1)n1ncn2cccc2c1=O (configuration not stated)	-4.6
CC(C(=O)NCc1cccnc1)N1C(=O)c2ccccc2C1=O (configuration not stated)	-39.6
O=C1CC(c2ccco2)CC(O)=C1C=NCC1NCCc2ccccc21 (configuration not stated)	-123
CCOC(=O)c1cccc(NC(=O)Cn2cnc3c2c(=O)n(C)c(=O)n3C)c1	2.2
O=C(O)C1C2C=CC(O2)C1C(=O)NCc1ccc(Cl)cc1 (configuration not stated)	16.4

Item O=c1[nH]c(=O)n([C@H]2C[C@H](O)[C@@H](CO)O2)cc1F has what recorded inhibition?
-47

Item C/C(=C\c1cc(C(=O)O)c(C)o1)CO has what recorded inhibition?
39.5

Item COc1ccccc1CNC(=O)CCn1c(=O)[nH]c2ccsc2c1=O has what recorded inhibition?
9.6

Item CSc1ccccc1C(=O)NC1CC2CCC1C2 (configuration not stated) has what recorded inhibition?
15.4
